measured-on: NDM-1 (Klebsiella pneumoniae, UniProt C7C422)
Construct: made in house
Sequence (C7C422 29-270, looked up, species assumed): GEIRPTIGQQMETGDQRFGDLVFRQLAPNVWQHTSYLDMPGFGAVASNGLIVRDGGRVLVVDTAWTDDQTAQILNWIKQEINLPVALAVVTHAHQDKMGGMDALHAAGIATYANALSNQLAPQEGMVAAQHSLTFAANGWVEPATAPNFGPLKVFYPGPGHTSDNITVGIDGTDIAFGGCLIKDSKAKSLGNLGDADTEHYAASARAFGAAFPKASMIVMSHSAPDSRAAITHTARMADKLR
test: Inhibition of NDM-1 with cefazolin as substrate (UV-vis kinetics)
Type: biochemical
run-conditions: value in nM, read-out: IC50 against NDM-1
assay-metric: IC50 (nM)

>>> df
                                   molecule                               measured_on  unit_spec  assay_value
0  O=C(CSc1nnc(-c2ccccc2O)[nH]1)Nc1cccc(Cl)c1 [Compound 2]  NDM-1 (Klebsiella pneumoniae, UniProt C7C422)         nM          170

---

// values below are pIC50; system is VIM-2 (Escherichia coli)
pIC50: −log10 of the molar value.
assay-metric: pIC50

                                    compound               measured_on  assay_metric  assay_value
 0  O=C(CSc1nnc(-c2ccccc2O)[nH]1)Nc1ccc(F)cc1 [Compound 11]  VIM-2 (Escherichia coli)         pIC50       < 3.00
 1  O=C(CSc1nnc(-c2ccccc2O)[nH]1)Nc1ccc(Cl)cc1[N+](=O)[O-] [Compound 6]  VIM-2 (Escherichia coli)         pIC50       < 3.00
 2  O=C(CSc1nnc(-c2ccccc2O)[nH]1)Nc1ccccc1Cl [Compound 1]  VIM-2 (Escherichia coli)         pIC50       < 3.00
 3  O=C(CSc1nnc(-c2ccccc2O)[nH]1)Nc1c(F)cccc1F [Compound 12]  VIM-2 (Escherichia coli)         pIC50         4.41
 4  O=C(CSc1nnc(-c2ccccc2O)[nH]1)Nc1ccc(Cl)cc1 [Compound 3]  VIM-2 (Escherichia coli)         pIC50       < 3.00
 5  O=C(CSc1nnc(-c2ccccc2O)[nH]1)Nc1ccc(Cl)c(Cl)c1 [Compound 4]  VIM-2 (Escherichia coli)         pIC50       < 3.00
 6  O=C(CSc1nnc(-c2ccccc2O)[nH]1)Nc1cccc(Cl)c1 [Compound 2]  VIM-2 (Escherichia coli)         pIC50       < 3.00
 7  O=C(CSc1nnc(-c2ccccc2O)[nH]1)Nc1ccccc1F [Compound 9]  VIM-2 (Escherichia coli)         pIC50       < 3.00
 8  O=C(CSc1nnc(-c2ccccc2O)[nH]1)Nc1ccc([N+](=O)[O-])cc1Cl [Compound 8]  VIM-2 (Escherichia coli)         pIC50       < 3.00
 9  O=C(CSc1nnc(-c2ccccc2O)[nH]1)Nc1cc(Cl)ccc1[N+](=O)[O-] [Compound 7]  VIM-2 (Escherichia coli)         pIC50       < 3.00
10  O=C(CSc1nnc(-c2ccccc2O)[nH]1)Nc1ccc(OC(F)(F)F)cc1 [Compound 13]  VIM-2 (Escherichia coli)         pIC50         5.55
11  O=C(CSc1nnc(-c2ccccc2O)[nH]1)Nc1ccc(Cl)cc1Cl [Compound 5]  VIM-2 (Escherichia coli)         pIC50       < 3.00
12  O=C(CSc1nnc(-c2ccccc2O)[nH]1)Nc1cccc(F)c1 [Compound 10]  VIM-2 (Escherichia coli)         pIC50       < 3.00

---

Recorded pIC50 for the following compounds
measured-on: NDM-1 (Klebsiella pneumoniae, UniProt C7C422)
Construct: made in house
test: Inhibition of NDM-1 with cefazolin as substrate (UV-vis kinetics)
Format: biochemical
run-conditions: 25 °C, Tris-HCl pH 7.0, 30 min pre-incubation, read-out: IC50 against NDM-1
Experimental: To test whether these halogen-substituted triazolethioacetamides were inhibitors of the MβLs, three subclasses MβLs B1(VIM-2 and NDM-1), B2 (ImiS), and B3 (L1) were expressed and purified as previously described. […] The inhibition studies were carried out on an Agilent UV 8453 spectrophotometer at 25 °C using cefazolin as substrate of […], NDM-1, and L1 and imipenem as substrate of ImiS. […] The IC50 values for all analyzed compounds were calculated based on the kinetic data. […]
pIC50: −log10 of the molar value.
assay-metric: pIC50

>>> print(df.to_string())
                                        mol  assay_value
0  O=C(CSc1nnc(-c2ccccc2O)[nH]1)Nc1ccc([N+](=O)[O-])cc1Cl       < 3.00
1  O=C(CSc1nnc(-c2ccccc2O)[nH]1)Nc1ccc(F)cc1       < 3.00
2  O=C(CSc1nnc(-c2ccccc2O)[nH]1)Nc1cc(Cl)ccc1[N+](=O)[O-]       < 3.00
3  O=C(CSc1nnc(-c2ccccc2O)[nH]1)Nc1ccc(Cl)c(Cl)c1       < 3.00
4   O=C(CSc1nnc(-c2ccccc2O)[nH]1)Nc1ccccc1F       < 3.00
5  O=C(CSc1nnc(-c2ccccc2O)[nH]1)Nc1ccc(Cl)cc1[N+](=O)[O-]       < 3.00
6  O=C(CSc1nnc(-c2ccccc2O)[nH]1)Nc1ccc(Cl)cc1         6.43
7  O=C(CSc1nnc(-c2ccccc2O)[nH]1)Nc1ccc(Cl)cc1Cl       < 3.00
8  O=C(CSc1nnc(-c2ccccc2O)[nH]1)Nc1ccccc1Cl         6.02

---

// values below are Ki; system is ImiS (Aeromonas veronii)
assay-metric: Ki (nM)

In [3]: df
Out[3]:
                                   compound  assay_value
0  O=C(CSc1nnc(-c2ccccc2O)[nH]1)Nc1ccccc1F [Compound 9]           74
1  O=C(CSc1nnc(-c2ccccc2O)[nH]1)Nc1ccc(OC(F)(F)F)cc1 [Compound 13]          270

---

// values below are log10 of IC50; system is ImiS (Aeromonas veronii, UniProt O31272)
Sequence (O31272 28-255): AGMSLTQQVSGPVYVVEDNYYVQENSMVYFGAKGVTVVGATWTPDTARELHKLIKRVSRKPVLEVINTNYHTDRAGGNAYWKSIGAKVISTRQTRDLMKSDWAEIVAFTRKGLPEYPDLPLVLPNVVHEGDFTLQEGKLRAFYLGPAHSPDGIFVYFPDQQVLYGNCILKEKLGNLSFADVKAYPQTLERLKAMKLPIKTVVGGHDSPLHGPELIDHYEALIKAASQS
assay-metric: log10 of IC50 (log10 of the value in nM)

>>> print(df.to_string())
                                         mol  assay_value
 0   O=C(CSc1nnc(-c2ccccc2O)[nH]1)Nc1ccccc1F         1.86
 1  O=C(CSc1nnc(-c2ccccc2O)[nH]1)Nc1cccc(Cl)c1         1.65
 2  O=C(CSc1nnc(-c2ccccc2O)[nH]1)Nc1cccc(F)c1         2.99
 3  O=C(CSc1nnc(-c2ccccc2O)[nH]1)Nc1ccc(Cl)cc1Cl         2.20
 4  O=C(CSc1nnc(-c2ccccc2O)[nH]1)Nc1ccc(Cl)cc1         1.71
 5  O=C(CSc1nnc(-c2ccccc2O)[nH]1)Nc1ccc(Cl)c(Cl)c1         2.43
 6  O=C(CSc1nnc(-c2ccccc2O)[nH]1)Nc1cc(Cl)ccc1[N+](=O)[O-]         2.30
 7  O=C(CSc1nnc(-c2ccccc2O)[nH]1)Nc1ccc([N+](=O)[O-])cc1Cl         2.41
 8  O=C(CSc1nnc(-c2ccccc2O)[nH]1)Nc1ccccc1Cl         1.51
 9  O=C(CSc1nnc(-c2ccccc2O)[nH]1)Nc1c(F)cccc1F         4.19
10  O=C(CSc1nnc(-c2ccccc2O)[nH]1)Nc1ccc(OC(F)(F)F)cc1         2.36
11  O=C(CSc1nnc(-c2ccccc2O)[nH]1)Nc1ccc(Cl)cc1[N+](=O)[O-]         2.89

---

measured-on: NDM-1 (Klebsiella pneumoniae, UniProt C7C422)
Construct: made in house
test: Inhibition of NDM-1 with cefazolin as substrate (UV-vis kinetics)
Type: biochemical
run-conditions: 25 °C, Tris-HCl pH 7.0, 30 min pre-incubation, read-out: IC50 against NDM-1
pIC50: −log10 of the molar value.
assay-metric: pIC50

>>> df
                                        mol  assay_metric  assay_value
0  O=C(CSc1nnc(-c2ccccc2O)[nH]1)Nc1ccc(OC(F)(F)F)cc1         pIC50       < 3.00
1  O=C(CSc1nnc(-c2ccccc2O)[nH]1)Nc1cccc(F)c1         pIC50       < 3.00
2  O=C(CSc1nnc(-c2ccccc2O)[nH]1)Nc1c(F)cccc1F         pIC50       < 3.00
3  O=C(CSc1nnc(-c2ccccc2O)[nH]1)Nc1cccc(Cl)c1         pIC50         6.77
